Readings of pIC50 for the listed compounds
# STUDY SYSTEM: AKT1 (Homo sapiens)
# Sequence (P31749 whole entry): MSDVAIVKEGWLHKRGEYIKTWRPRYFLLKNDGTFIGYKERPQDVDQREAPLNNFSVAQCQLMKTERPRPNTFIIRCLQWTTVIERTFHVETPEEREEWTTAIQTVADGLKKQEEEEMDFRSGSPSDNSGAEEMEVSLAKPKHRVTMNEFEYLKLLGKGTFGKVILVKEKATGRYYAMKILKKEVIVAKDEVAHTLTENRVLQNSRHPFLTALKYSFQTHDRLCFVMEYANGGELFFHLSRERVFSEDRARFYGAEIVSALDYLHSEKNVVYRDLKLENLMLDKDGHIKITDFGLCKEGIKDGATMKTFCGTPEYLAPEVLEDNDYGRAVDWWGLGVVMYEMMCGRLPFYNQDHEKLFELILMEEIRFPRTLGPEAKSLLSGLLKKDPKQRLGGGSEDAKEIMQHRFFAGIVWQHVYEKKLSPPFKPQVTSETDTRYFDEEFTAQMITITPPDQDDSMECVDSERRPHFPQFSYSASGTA
# EXPERIMENT SUMMARY: AKT Kinase Assay (IMAP fluorescent polarisation) vs AKT1
# TEST CONTEXT: activated AKT1, FAM Crosstide substrate
pIC50: −log10 of the molar value. Structures can show the parent of a compound that is named as a salt.

>>> df
                                   compound  assay_metric  readout_value
0  CNc1nc2oc(-c3ccc(C4(N)CCC4)cc3)c(-c3ccccc3)c2c(=O)n1CC1CC1         pIC50   5.00 to 6.00
1  NC1(c2ccc(-c3oc4nc(NCCO)n(CCF)c(=O)c4c3-c3ccccc3)cc2)CCC1         pIC50   5.00 to 6.00
2  COc1nc(-n2ccnc2)nc2oc(-c3ccc(C4(N)CCC4)cc3)c(-c3ccccc3)c12         pIC50         ≥ 7.00
3  NC1(c2ccc(-c3oc4ncc(-c5cnn[nH]5)nc4c3-c3ccccc3)cc2)CCC1         pIC50   5.00 to 6.00
4  NC1(c2ccc(-c3oc4ccncc4c3-c3ccccc3)cc2)CCC1         pIC50   5.00 to 6.00
5  Nc1cnc2oc(-c3ccc(C4(N)CCC4)cc3)c(-c3ccccc3)c2c1         pIC50   5.00 to 6.00

Quote pIC50 with test system AKT1 (Homo sapiens) for Cn1ccc2c(-c3ccccc3)c(-c3ccc(C4(N)CCC4)cc3)oc2c1=O
6.00 to 7.00

Report pIC50 on AKT1 (Homo sapiens) for this entry: Cn1c(OCCO)nc2oc(-c3ccc(C4(N)CCC4)cc3)c(-c3ccccc3)c2c1=O [Example 85, HCl]
6.00 to 7.00

Report pIC50 from AKT1 (Homo sapiens) testing of NC1(c2ccc(-c3oc4ncc(N5CCOCC5)cc4c3-c3ccccc3)cc2)CCC1
< 5.00
